- assay_explanation: Mean residence time in Sprague-Dawley rat in fasted state at 3 mg/kg, po
- Assay type: ADME, organism-based
- Design: dose 3 mg/kg, route oral
- conditions_used: in vivo
value_type: MRT (h)
Report only the number, with the unit h understood.

Q: Consider the molecule Cc1ncc2n1C(=O)N(C1CCN(C(=O)CCS(=O)(=O)c3ccc4cc(Cl)ccc4c3)CC1)C2 and give its measured MRT.
Ans: 1.5

====

- assay_explanation: Cmax in cynomolgus monkey in fed state at 3 mg/kg, po
- Assay type: ADME, organism-based, Macaca fascicularis
- Parameters: dose 3 mg/kg, route oral
- conditions_used: in vivo
value_type: Cmax (ng/mL)
Kindly provide the numeric value in ng/mL only, without the unit symbol.

Q: Give its Cmax value. Item: Cc1ncc2n1C(=O)N(C1CCN(C(=O)CCS(=O)(=O)c3ccc4cc(Cl)ccc4c3)CC1)C2
Ans: 269

====

- assay_explanation: AUC (0 to 24 hrs) in cynomolgus monkey in fed state at 3 mg/kg, po
- Assay type: ADME, organism-based, Macaca fascicularis
- Parameters: time < 24 hr, dose 3 mg/kg, route oral
- conditions_used: plasma
value_type: AUC(0-t) at 24 h (ng·h/mL)
The figure you give is taken to be in ng·h/mL; do not add the unit.

Q: What measured AUC(0-t) at 24 h goes with Cc1ncc2n1C(=O)N(C1CCN(C(=O)CCS(=O)(=O)c3ccc4cc(Cl)ccc4c3)CC1)C2 ?
Ans: 2590

====

- assay_explanation: AUC (0 to 24 hrs) in Sprague-Dawley rat in fed state at 3 mg/kg, po
- Assay type: ADME, organism-based
- Set-up: time < 24 hr, dose 3 mg/kg, route oral
- conditions_used: plasma
value_type: AUC(0-t) at 24 h (ng·h/mL)
Number only, in ng·h/mL; omit the unit.

Q: Fill in the blank: the reported AUC(0-t) at 24 h of Cc1ncc2n1C(=O)N(C1CCN(C(=O)CCS(=O)(=O)c3ccc4cc(Cl)ccc4c3)CC1)C2 is ____.
Ans: 597

====

- assay_explanation: Cmax in cynomolgus monkey in fasted state at 3 mg/kg, po
- Assay type: ADME, organism-based, Macaca fascicularis
- Design: dose 3 mg/kg, route oral
- conditions_used: in vivo
value_type: Cmax (ng/mL)
All answers are understood in ng/mL, so give the number only.

Q: Field request: Cmax | item: Cc1ncc2n1C(=O)N(C1CCN(C(=O)CCS(=O)(=O)c3ccc4cc(Cl)ccc4c3)CC1)C2
Ans: 1200

====

- System: Plasma
- assay_explanation: Anticoagulant activity in mouse plasma assessed as ratio of prothrombin time in drug to untreated control at 30 mg/kg, po
- Assay type: functional
value_type: Ratio
Reply with the value as a number alone.

Examples with answers:
| record_smiles | Ratio |
| --- | --- |
| Cc1nccn1CCN1CCN(C(=O)CCS(=O)(=O)c2ccc3cc(Cl)ccc3c2)CC1 | 1.1 |
| Cc1nccn1CCC1CCN(C(=O)CCS(=O)(=O)c2ccc3cc(Cl)ccc3c2)CC1 | 1.1 |
| Cn1cncc1C1CCN(C(=O)CCS(=O)(=O)c2ccc3cc(Cl)ccc3c2)CC1 | 1.2 |
| Cc1nc(C)n2c1CN(C1CCN(C(=O)CCS(=O)(=O)c3ccc4cc(Cl)ccc4c3)CC1)C2=O | 2 |
| Cc1ncc2n1C(=O)N(N1CCN(C(=O)CCS(=O)(=O)c3ccc4cc(Cl)ccc4c3)CC1)C2 | 2.8 |
| O=C(CCS(=O)(=O)c1ccc2cc(Cl)ccc2c1)N1CCC(c2cnc3n2CCCC3)CC1 | 1.1 |

Now for another entry.
Q: Data request, read-out Ratio, for Cc1nccn1C1CCN(C(=O)CCS(=O)(=O)c2ccc3cc(Cl)ccc3c2)CC1
Ans: 1.1

====

- assay_explanation: Volume of distribution in steady state in cynomolgus monkey in fed state at 0.3 mg, iv
- Type: ADME, organism-based, Macaca fascicularis
- conditions_used: in vivo, read-out: Vdss
value_type: Vd (L/kg)
Give the value, in units of L/kg, as a plain number.

Q: // lookup Vd for Cc1ncc2n1C(=O)N(C1CCN(C(=O)CCS(=O)(=O)c3ccc4cc(Cl)ccc4c3)CC1)C2
Ans: 0.556

====

- assay_explanation: Tmax in Sprague-Dawley rat in fasted state at 3 mg/kg, po
- Format: ADME, organism-based
- Design: dose 3 mg/kg, route oral
- conditions_used: in vivo
value_type: Tmax
Note: state the figure and append the unit.

Q: Can you look up the measured Tmax of Cc1ncc2n1C(=O)N(C1CCN(C(=O)CCS(=O)(=O)c3ccc4cc(Cl)ccc4c3)CC1)C2 for me?
Ans: 18 min

====

- assay_explanation: Basicity, pKa by titration method
- Assay type: physicochemical
Quick reference for pKa among some molecules
In your answer, state the number alone without any accompanying words.

# example entries with known answers
| record_smiles | pKa |
| --- | --- |
| Cc1ncc2n1C(=O)N(C1CCN(C(=O)CCS(=O)(=O)c3ccc4cc(Cl)ccc4c3)CC1)C2 | 5 |
| O=C(CCS(=O)(=O)c1ccc2cc(Cl)ccc2c1)N1CCC(c2cnc[nH]2)CC1 | 6.9 |

Q: Fill in the blank: the reported pKa of O=C(CCS(=O)(=O)c1ccc2cc(Cl)ccc2c1)N1CCC(c2cnc3n2CCCC3)CC1 is ____.
Ans: 8.2

Q: pKa for Cc1ncc(C2CCN(C(=O)CCS(=O)(=O)c3ccc4cc(Cl)ccc4c3)CC2)n1C ?
Ans: 8.2

Q: I would be grateful if you could share the reported pKa for Cc1ncc2n1C(=O)N(N1CCN(C(=O)CCS(=O)(=O)c3ccc4cc(Cl)ccc4c3)CC1)C2 .
Ans: 5

====

- system: CYP3A4 (Homo sapiens, UniProt P08684)
- Sequence (P08684 whole entry): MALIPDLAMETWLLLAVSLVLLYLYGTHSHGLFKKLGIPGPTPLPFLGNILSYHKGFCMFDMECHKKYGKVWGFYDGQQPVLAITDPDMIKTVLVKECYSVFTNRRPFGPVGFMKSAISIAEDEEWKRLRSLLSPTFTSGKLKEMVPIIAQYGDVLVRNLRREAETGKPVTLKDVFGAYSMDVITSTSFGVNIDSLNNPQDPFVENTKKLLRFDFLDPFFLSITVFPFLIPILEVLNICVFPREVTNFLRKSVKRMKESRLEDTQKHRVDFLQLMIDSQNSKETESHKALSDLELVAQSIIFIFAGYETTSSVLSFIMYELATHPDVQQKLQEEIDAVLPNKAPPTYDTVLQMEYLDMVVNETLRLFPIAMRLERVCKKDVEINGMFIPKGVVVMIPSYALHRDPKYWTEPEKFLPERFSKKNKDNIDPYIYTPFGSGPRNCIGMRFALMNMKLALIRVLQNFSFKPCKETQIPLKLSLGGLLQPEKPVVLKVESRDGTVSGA
- assay_explanation: Inhibition of CYP3A4 expressed in human B-lymphoblastoid cells at 10 uM
- Type: ADME, cell-based
value_type: inhibition at 10 µM (%)
Value expressed in %; do not type the unit.

Reference set (5 entries):
| record_smiles | system | inhibition at 10 µM, % |
| --- | --- | --- |
| O=C(CCS(=O)(=O)c1ccc2cc(Cl)ccc2c1)N1CCC(c2cnc3n2CCCC3)CC1 | CYP3A4 (Homo sapiens, UniProt P08684) | 42 |
| Cc1nccn1CCC1CCN(C(=O)CCS(=O)(=O)c2ccc3cc(Cl)ccc3c2)CC1 | CYP3A4 (Homo sapiens, UniProt P08684) | 38 |
| Cc1ncc2n1C(=O)N(N1CCN(C(=O)CCS(=O)(=O)c3ccc4cc(Cl)ccc4c3)CC1)C2 | CYP3A4 (Homo sapiens, UniProt P08684) | 38 |
| Cc1nc(C)n2c1CN(C1CCN(C(=O)CCS(=O)(=O)c3ccc4cc(Cl)ccc4c3)CC1)C2=O | CYP3A4 (Homo sapiens, UniProt P08684) | 62 |
| Cc1ncc2n1C(=O)N(C1CCN(C(=O)CCS(=O)(=O)c3ccc4cc(Cl)ccc4c3)CC1)C2 | CYP3A4 (Homo sapiens, UniProt P08684) | 23 |

Q: Query: inhibition at 10 µM; subject: Cc1nccn1CCN1CCN(C(=O)CCS(=O)(=O)c2ccc3cc(Cl)ccc3c2)CC1
Ans: 53

Q: I'd like to know its inhibition at 10 µM. The molecule in question is Cc1nccn1C1CCN(C(=O)CCS(=O)(=O)c2ccc3cc(Cl)ccc3c2)CC1
Ans: 34

Q: Fill in: inhibition at 10 µM of Cc1ncc(C2CCN(C(=O)CCS(=O)(=O)c3ccc4cc(Cl)ccc4c3)CC2)n1C is ___
Ans: 25

Q: Consider the molecule shown here: Cn1cncc1C1CCN(C(=O)CCS(=O)(=O)c2ccc3cc(Cl)ccc3c2)CC1 What is its recorded inhibition at 10 µM?
Ans: 82

====

- assay_explanation: Cmin in cynomolgus monkey in fed state at 0.3 mg, iv after 5 mins
- Type: ADME, organism-based, Macaca fascicularis
- conditions_used: in vivo, read-out: Cmin
value_type: concentration at 5 min (ng/mL)
Field format: number, assumed ng/mL, no unit text.

Q: Could you tell me which concentration at 5 min is on file for Cc1ncc2n1C(=O)N(C1CCN(C(=O)CCS(=O)(=O)c3ccc4cc(Cl)ccc4c3)CC1)C2 ?
Ans: 612

====

- assay_explanation: Tmax in cynomolgus monkey in fed state at 3 mg/kg, po
- Format: ADME, organism-based, Macaca fascicularis
- Design: dose 3 mg/kg, route oral
- conditions_used: in vivo
value_type: Tmax (h)
Kindly answer with a numeric value in h, unit omitted.

Q: State the recorded Tmax for this entry: Cc1ncc2n1C(=O)N(C1CCN(C(=O)CCS(=O)(=O)c3ccc4cc(Cl)ccc4c3)CC1)C2
Ans: 2.3

====

- system: Coagulation factor X (Homo sapiens)
- Sequence (P00742 41-179 limits assumed): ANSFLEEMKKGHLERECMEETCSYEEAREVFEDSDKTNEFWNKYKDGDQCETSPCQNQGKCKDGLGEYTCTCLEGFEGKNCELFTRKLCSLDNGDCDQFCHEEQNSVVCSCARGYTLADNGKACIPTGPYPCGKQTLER
- Sequence (P00742 235-488 limits assumed): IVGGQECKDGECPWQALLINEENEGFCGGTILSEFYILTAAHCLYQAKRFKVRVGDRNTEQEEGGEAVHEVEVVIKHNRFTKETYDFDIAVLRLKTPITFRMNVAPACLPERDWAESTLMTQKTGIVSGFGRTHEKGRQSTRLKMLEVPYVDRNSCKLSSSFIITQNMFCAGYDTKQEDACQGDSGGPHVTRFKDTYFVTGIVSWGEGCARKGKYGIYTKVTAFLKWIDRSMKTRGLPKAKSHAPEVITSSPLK
# key: entry, value: IC50
Enter your answer as a number in nM; do not include the unit.

Below, each entry is followed by its recorded IC50 result.
| record_smiles | IC50 (nM) |
| --- | --- |
| Cc1nccn1CCN1CCN(C(=O)CCS(=O)(=O)c2ccc3cc(Cl)ccc3c2)CC1 | 54 |
| Cn1ccnc1C1CCN(C(=O)CCS(=O)(=O)c2ccc3cc(Cl)ccc3c2)CC1 | 56 |
| Cc1nccn1C1CCN(C(=O)CCS(=O)(=O)c2ccc3cc(Cl)ccc3c2)CC1 | 170 |

Q: Record request: IC50 value, item O=C(CCS(=O)(=O)c1ccc2cc(Cl)ccc2c1)N1CCC(c2cnc[nH]2)CC1
Ans: 170

Q: Give its IC50 value. Item: Cc1ncc2n1C(=O)N(N1CCN(C(=O)CCS(=O)(=O)c3ccc4cc(Cl)ccc4c3)CC1)C2
Ans: 6.9
